Would you mind telling me the reported pIC50 of each entry?
Target: E. feacium DltA (Enterococcus faecium)
Sequence (Q3XZT7 1-504): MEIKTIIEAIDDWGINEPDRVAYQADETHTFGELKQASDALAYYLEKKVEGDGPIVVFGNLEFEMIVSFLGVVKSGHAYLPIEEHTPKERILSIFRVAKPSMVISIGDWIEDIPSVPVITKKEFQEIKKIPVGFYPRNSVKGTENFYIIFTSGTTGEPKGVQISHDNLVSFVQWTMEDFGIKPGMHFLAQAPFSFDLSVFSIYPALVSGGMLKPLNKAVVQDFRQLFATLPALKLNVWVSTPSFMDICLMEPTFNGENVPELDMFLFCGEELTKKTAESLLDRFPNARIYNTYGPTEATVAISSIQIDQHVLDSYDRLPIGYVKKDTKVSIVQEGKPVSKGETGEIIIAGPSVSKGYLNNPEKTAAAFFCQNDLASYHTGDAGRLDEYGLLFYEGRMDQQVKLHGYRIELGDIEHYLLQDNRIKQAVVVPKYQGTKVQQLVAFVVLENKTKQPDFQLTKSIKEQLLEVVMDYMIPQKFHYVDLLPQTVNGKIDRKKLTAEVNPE
Assay: in vitro DltA activity assay (luminescence, IC50 determination)
Assay type: biochemical
Details: recombinant DltA, 30min preincubation at room temperature, 0.5mM D-Alanine, 0.5-5µM ATP; read-out: E. feacium DltA IC50
Kindly note that pIC50 refers to -log10 of the concentration in mol/L and answer with the value alone.

(Q) Return reported pIC50; argument: O=c1[nH]cnc2c(-c3ccc4c(c3)ncn4C3CCCCC3)cn(CCCCCO)c12 [Example 68]
(A) 6.14

(Q) So what's the measured pIC50 for this one? O=c1[nH]cnc2c(-c3ccc4c(c3)ncn4C3CCCCC3)sc(N3CC4C(O)C4C3)c12 (stereo not drawn) [Example 17]
(A) 6.72

(Q) So what does the record say about pIC50 for O=c1[nH]cnc2c(-c3ccc4c(c3)ncn4C3CCCCC3)cn(C3CCOCC3)c12 [Example 81] ?
(A) 6.52

(Q) # get_value(readout='pIC50', item= CC1CCCC(n2cnc3cc(-c4sc(N5CC[C@H](CO)C5)c5c(=O)[nH]cnc45)ccc32)C1 (stereo partly drawn) [Example 48] )
(A) 6.96

(Q) Requested field: pIC50. Item: COCCn1cnc2cc(-c3sc(N4CC[C@H](CO)C4)c4c(=O)[nH]cnc34)ccc21 [Example 46]
(A) 6.36

(Q) What value of pIC50 has been recorded for this entry: O=c1[nH]cnc2c(-c3ccc4c(c3)ncn4C3CCCCC3)cn(CCCO)c12 [Example 67]
(A) 6.03
